Measured pest or weed control at 75 ppm accompanies every entry in the list below.
Test system: Venturia inaequalis; Bayer Code VENTIN
Assay: Apple scab
Format: in vivo
Settings: 24 h, % disease control rating, one day protectant, 75 ppm, read-out: VENTIN 1 DP 75 ppm
Result type: pest or weed control at 75 ppm

[[record]]
compound = "CCCNC(=O)N(C(=O)NCCC)c1nc(OCc2cccc(OC)c2)ncc1F [Compound 36]"
result_type = "pest or weed control at 75 ppm"
result = "76 to 100%"

[[record]]
compound = "COc1ncc(Oc2ncc(F)c(N)n2)cn1 [Compound 488]"
result_type = "pest or weed control at 75 ppm"
result = "26 to 50%"

[[record]]
compound = "Nc1nc(OCc2cc3ccccc3s2)ncc1F [Compound 345]"
result_type = "pest or weed control at 75 ppm"
result = "76 to 100%"

[[record]]
compound = "Cc1ccc(COc2ncc(F)c(NN)n2)cc1 [Compound 538]"
result_type = "pest or weed control at 75 ppm"
result = "51 to 75%"

[[record]]
compound = "CO/N=C\\Nc1nc(OCc2ccc(F)cc2)ncc1F [Compound 739]"
result_type = "pest or weed control at 75 ppm"
result = "51 to 75%"

[[record]]
compound = "CCC(Nc1nc(OCc2ccc(F)cc2)ncc1F)OC (stereo not drawn) [Compound 14]"
result_type = "pest or weed control at 75 ppm"
result = "76 to 100%"


----------
System: Mycosphaerella graminicola; Anamorph: Septoria tritici; Bayer Code SEPTTR
Experiment: Leaf blotch of wheat, foliar fungicide treatment, one day protectant (1DP) or three day curative (3DC)
Type: in vivo, Septoria tritici on wheat plants (variety Yuma)
Conditions: Zymoseptoria tritici, 72 h, three day curative, 25 ppm, rating of percent disease control, read-out: SEPTTR 3DC 25 ppm
Result type: pest or weed control at 25 ppm

[[record]]
molecule = "CC(CCOc1ncc(F)c(N)n1)c1ccccc1 (stereo not shown)"
result = "51 to 75%"

[[record]]
molecule = "Nc1nc(OCc2ccccc2F)ncc1F"
result = "51 to 75%"

[[record]]
molecule = "C/C(=N\\c1nc(OCc2ccc(F)cc2)ncc1F)N(C)C"
result = "76 to 100%"

[[record]]
molecule = "CC[Si](CC)(CC)Nc1nc(OCc2ccccc2)ncc1F"
result = "76 to 100%"

[[record]]
molecule = "COc1cccc(COc2ncc(F)c(/N=C/N3CCOCC3)n2)c1"
result = "76 to 100%"

[[record]]
molecule = "Fc1cnc(OCc2ccccc2)nc1/N=C/N1CCc2ccccc2C1"
result = "76 to 100%"

[[record]]
molecule = "COc1cccc(COc2ncc(F)c(NC(C)=O)n2)c1"
result = "76 to 100%"

[[record]]
molecule = "O=C(Nc1ccsc1)Nc1nc(OCCc2ccc(Cl)cc2)ncc1F"
result = "26 to 50%"

[[record]]
molecule = "Nc1nc(OCc2cccnc2Cl)ncc1F"
result = "0 to 25%"

[[record]]
molecule = "Nc1nc(OCC2CC2)ncc1F"
result = "0 to 25%"


----------
Test system: Mycosphaerella graminicola; Anamorph: Septoria tritici; Bayer Code SEPTTR
Test: Leaf blotch of wheat, foliar fungicide treatment, one day protectant (1DP) or three day curative (3DC)
Type: in vivo, Septoria tritici on wheat plants (variety Yuma)
Conditions: Zymoseptoria tritici, 24 h, one day protectant (1DP), 25 ppm, rating of percent disease control, read-out: SETTTR 1DP 25 ppm
Result type: pest or weed control at 25 ppm

[[record]]
compound = "N#Cc1cccc(COc2ncc(F)c(NC(=S)NCc3ccccc3F)n2)c1 [Compound 504]"
result = "0 to 25%"

[[record]]
compound = "CCOCNc1nc(OCc2ccc(OC)c(F)c2)ncc1F [Compound 452]"
result = "76 to 100%"

[[record]]
compound = "Cc1cc(C)cc(COc2ncc(F)c(NSc3ccccc3[N+](=O)[O-])n2)c1 [Compound 440]"
result = "0 to 25%"

[[record]]
compound = "C=C(C)COc1ncc(F)c(N)n1 [Compound 256]"
result = "0 to 25%"

[[record]]
compound = "O=C(Cc1ccccc1)Nc1nc(OCc2ccccc2)ncc1F [Compound 792]"
result = "76 to 100%"

[[record]]
compound = "CCOCNc1nc(OCc2ccccc2)ncc1F [Compound 753]"
result = "76 to 100%"

[[record]]
compound = "Nc1nc(OCc2ccnc3ccccc23)ncc1F [Compound 401]"
result = "76 to 100%"

[[record]]
compound = "COCCCOc1ncc(F)c(NC(C)=O)n1 [Compound 321]"
result = "76 to 100%"

[[record]]
compound = "Nc1nc(OCc2ccc(Br)cc2)ncc1F [Compound 757]"
result = "76 to 100%"

[[record]]
compound = "N#CNc1nc(OCc2ccc(F)cc2)ncc1F [Compound 451]"
result = "0 to 25%"

[[record]]
compound = "CN(C)/C=N/c1nc(OCCNc2ccccc2)ncc1F [Compound 248]"
result = "0 to 25%"

[[record]]
compound = "Fc1ccccc1CNc1nc(OCc2ccccc2)ncc1F [Compound 750]"
result = "26 to 50%"

[[record]]
compound = "COc1cccc(COc2ncc(F)c(/N=C3\\CCCCN3C)n2)c1 [Compound 327]"
result = "51 to 75%"

[[record]]
compound = "COc1ccc(COc2ncc(F)c(NC(=O)Nc3ccccc3F)n2)cc1F [Compound 519]"
result = "0 to 25%"

[[record]]
compound = "COc1cccc(COc2ncc(F)c(NCO)n2)c1 [Compound 741]"
result = "26 to 50%"

[[record]]
compound = "O=C(NCc1ccccc1F)Nc1nc(OCc2ccccc2)ncc1F [Compound 371]"
result = "0 to 25%"

[[record]]
compound = "Nc1nc(OCc2snc(Cl)c2Cl)ncc1F [Compound 442]"
result = "76 to 100%"

[[record]]
compound = "Nc1nc(OCc2ccnc(Cl)c2)ncc1F [Compound 308]"
result = "76 to 100%"

[[record]]
compound = "COc1cccc(COc2ncc(F)c(NNc3ccccc3)n2)c1 [Compound 306]"
result = "0 to 25%"

[[record]]
compound = "CC(C)Oc1ncc(F)c(N)n1 [Compound 267]"
result = "0 to 25%"

[[record]]
compound = "Fc1ccccc1CNC(=S)Nc1nc(OCc2ccccc2)ncc1F [Compound 438]"
result = "51 to 75%"


----------
Tested on: Mycosphaerella graminicola; Anamorph: Septoria tritici; Bayer Code SEPTTR
Experiment: Leaf blotch of wheat, foliar fungicide treatment, one day protectant (1DP) or three day curative (3DC)
Type: in vivo, Septoria tritici on wheat plants (variety Yuma)
Conditions: Zymoseptoria tritici, 72 h, three day curative (3DC), 25 ppm, percent control rating, read-out: SEPTTR 3DC 25 ppm
Measured pest or weed control at 25 ppm accompanies every entry in the list below.
Result type: pest or weed control at 25 ppm

[[record]]
molecule = "Fc1ccccc1NNc1nc(OCc2ccccc2)ncc1F [Compound 1028]"
measured_target = "Mycosphaerella graminicola; Anamorph: Septoria tritici; Bayer Code SEPTTR"
result = "0 to 25%"

[[record]]
molecule = "COc1ncc(F)c(N(C)O)n1 [Compound 1066]"
measured_target = "Mycosphaerella graminicola; Anamorph: Septoria tritici; Bayer Code SEPTTR"
result = "0 to 25%"

[[record]]
molecule = "Oc1ncc(F)c(NCOCc2ccccc2)n1 [Compound 1082]"
measured_target = "Mycosphaerella graminicola; Anamorph: Septoria tritici; Bayer Code SEPTTR"
result = "0 to 25%"

[[record]]
molecule = "O=C(Nc1ccccc1)Nc1nc(O)ncc1F [Compound 967]"
measured_target = "Mycosphaerella graminicola; Anamorph: Septoria tritici; Bayer Code SEPTTR"
result = "51 to 75%"

[[record]]
molecule = "COc1ncc(F)c(N(O)C(C)C)n1 [Compound 1067]"
measured_target = "Mycosphaerella graminicola; Anamorph: Septoria tritici; Bayer Code SEPTTR"
result = "0 to 25%"

[[record]]
molecule = "C=CCOc1ncc(F)c(/N=N/c2ccc(Br)cc2)n1 [Compound 1100]"
measured_target = "Mycosphaerella graminicola; Anamorph: Septoria tritici; Bayer Code SEPTTR"
result = "26 to 50%"


----------
Test system: Mycosphaerella graminicola; Anamorph: Septoria tritici; Bayer Code SEPTTR
Assay: Leaf blotch of wheat, foliar fungicide treatment, one day protectant (1DP) or three day curative (3DC)
Assay type: in vivo, Septoria tritici on wheat plants (variety Yuma)
Conditions: Zymoseptoria tritici, 72 h, three day curative (3DC), 25 ppm, percent control rating, read-out: SEPTTR 3DC 25 ppm
Result type: pest or weed control at 25 ppm

[[record]]
molecular_string = "O=C(/C=C/c1ccccc1)Nc1nc(O)ncc1F"
result_type = "pest or weed control at 25 ppm"
result = "51 to 75%"

[[record]]
molecular_string = "CC(C)(C)NNc1nc(O)ncc1F"
result_type = "pest or weed control at 25 ppm"
result = "0 to 25%"

[[record]]
molecular_string = "CCCCCNC(=O)Nc1nc(O)ncc1F"
result_type = "pest or weed control at 25 ppm"
result = "51 to 75%"

[[record]]
molecular_string = "O=S(=O)(Nc1nc(OCc2ccc(F)cc2)ncc1F)c1ccccc1"
result_type = "pest or weed control at 25 ppm"
result = "0 to 25%"

[[record]]
molecular_string = "COc1ncc(F)c(NNc2ccccn2)n1"
result_type = "pest or weed control at 25 ppm"
result = "0 to 25%"

[[record]]
molecular_string = "Fc1cnc(OCc2ccccc2)nc1/N=N/c1ccccc1"
result_type = "pest or weed control at 25 ppm"
result = "0 to 25%"

[[record]]
molecular_string = "CCS(=O)(=O)Nc1nc(O)ncc1F"
result_type = "pest or weed control at 25 ppm"
result = "0 to 25%"

[[record]]
molecular_string = "Cc1coc(C)c1C(=O)Nc1nc(O)ncc1F"
result_type = "pest or weed control at 25 ppm"
result = "0 to 25%"

[[record]]
molecular_string = "COc1nn(C)c(C(F)(F)F)c1S(=O)(=O)Nc1nc(OCc2ccc(C)cc2)ncc1F"
result_type = "pest or weed control at 25 ppm"
result = "26 to 50%"

[[record]]
molecular_string = "C=CCOc1ncc(F)c(NNc2ccccc2F)n1"
result_type = "pest or weed control at 25 ppm"
result = "0 to 25%"

[[record]]
molecular_string = "Fc1ccc(COc2ncc(F)c(NNc3nc4ccccc4s3)n2)cc1"
result_type = "pest or weed control at 25 ppm"
result = "0 to 25%"

[[record]]
molecular_string = "COc1ncc(F)c(N/N=C/C2CC2)n1"
result_type = "pest or weed control at 25 ppm"
result = "0 to 25%"

[[record]]
molecular_string = "Fc1ccc(COc2ncc(F)c(NNc3nccc(C(F)(F)F)n3)n2)cc1"
result_type = "pest or weed control at 25 ppm"
result = "0 to 25%"

[[record]]
molecular_string = "Oc1ncc(F)c(NNc2ccccc2Cl)n1"
result_type = "pest or weed control at 25 ppm"
result = "0 to 25%"

[[record]]
molecular_string = "COc1ccc(/C=N/Nc2nc(O)ncc2F)cc1"
result_type = "pest or weed control at 25 ppm"
result = "0 to 25%"

[[record]]
molecular_string = "Oc1ncc(F)c(N/N=C/c2ccccc2Cl)n1"
result_type = "pest or weed control at 25 ppm"
result = "0 to 25%"

[[record]]
molecular_string = "COc1cccc(COc2ncc(F)c(NS(=O)(=O)c3ccccc3)n2)c1"
result_type = "pest or weed control at 25 ppm"
result = "0 to 25%"

[[record]]
molecular_string = "O=C(Nc1ccccc1Cl)Nc1nc(O)ncc1F"
result_type = "pest or weed control at 25 ppm"
result = "51 to 75%"

[[record]]
molecular_string = "COc1ncc(F)c(NNC(=O)Cc2ccccc2)n1"
result_type = "pest or weed control at 25 ppm"
result = "0 to 25%"

[[record]]
molecular_string = "C/C(=N\\Oc1ncc(F)c(N)n1)c1ccc(S(=O)(=O)N(C)C)cc1"
result_type = "pest or weed control at 25 ppm"
result = "26 to 50%"

[[record]]
molecular_string = "COc1cccc(COc2ncc(F)c(NS(=O)(=O)C(C)C)n2)c1"
result_type = "pest or weed control at 25 ppm"
result = "0 to 25%"


Sourced from patent US9204653B2
